- target-or-system: SMARCA4 (Homo sapiens)
- Construct: SMARCA4-HiBiT knock-in Hela monoclonal cell (CS3023226) were purchased from Promega; host or cells: HeLa (CRISPR HiBiT knock-in monoclonal line, heterozygous)
- Sequence (P51532 whole entry): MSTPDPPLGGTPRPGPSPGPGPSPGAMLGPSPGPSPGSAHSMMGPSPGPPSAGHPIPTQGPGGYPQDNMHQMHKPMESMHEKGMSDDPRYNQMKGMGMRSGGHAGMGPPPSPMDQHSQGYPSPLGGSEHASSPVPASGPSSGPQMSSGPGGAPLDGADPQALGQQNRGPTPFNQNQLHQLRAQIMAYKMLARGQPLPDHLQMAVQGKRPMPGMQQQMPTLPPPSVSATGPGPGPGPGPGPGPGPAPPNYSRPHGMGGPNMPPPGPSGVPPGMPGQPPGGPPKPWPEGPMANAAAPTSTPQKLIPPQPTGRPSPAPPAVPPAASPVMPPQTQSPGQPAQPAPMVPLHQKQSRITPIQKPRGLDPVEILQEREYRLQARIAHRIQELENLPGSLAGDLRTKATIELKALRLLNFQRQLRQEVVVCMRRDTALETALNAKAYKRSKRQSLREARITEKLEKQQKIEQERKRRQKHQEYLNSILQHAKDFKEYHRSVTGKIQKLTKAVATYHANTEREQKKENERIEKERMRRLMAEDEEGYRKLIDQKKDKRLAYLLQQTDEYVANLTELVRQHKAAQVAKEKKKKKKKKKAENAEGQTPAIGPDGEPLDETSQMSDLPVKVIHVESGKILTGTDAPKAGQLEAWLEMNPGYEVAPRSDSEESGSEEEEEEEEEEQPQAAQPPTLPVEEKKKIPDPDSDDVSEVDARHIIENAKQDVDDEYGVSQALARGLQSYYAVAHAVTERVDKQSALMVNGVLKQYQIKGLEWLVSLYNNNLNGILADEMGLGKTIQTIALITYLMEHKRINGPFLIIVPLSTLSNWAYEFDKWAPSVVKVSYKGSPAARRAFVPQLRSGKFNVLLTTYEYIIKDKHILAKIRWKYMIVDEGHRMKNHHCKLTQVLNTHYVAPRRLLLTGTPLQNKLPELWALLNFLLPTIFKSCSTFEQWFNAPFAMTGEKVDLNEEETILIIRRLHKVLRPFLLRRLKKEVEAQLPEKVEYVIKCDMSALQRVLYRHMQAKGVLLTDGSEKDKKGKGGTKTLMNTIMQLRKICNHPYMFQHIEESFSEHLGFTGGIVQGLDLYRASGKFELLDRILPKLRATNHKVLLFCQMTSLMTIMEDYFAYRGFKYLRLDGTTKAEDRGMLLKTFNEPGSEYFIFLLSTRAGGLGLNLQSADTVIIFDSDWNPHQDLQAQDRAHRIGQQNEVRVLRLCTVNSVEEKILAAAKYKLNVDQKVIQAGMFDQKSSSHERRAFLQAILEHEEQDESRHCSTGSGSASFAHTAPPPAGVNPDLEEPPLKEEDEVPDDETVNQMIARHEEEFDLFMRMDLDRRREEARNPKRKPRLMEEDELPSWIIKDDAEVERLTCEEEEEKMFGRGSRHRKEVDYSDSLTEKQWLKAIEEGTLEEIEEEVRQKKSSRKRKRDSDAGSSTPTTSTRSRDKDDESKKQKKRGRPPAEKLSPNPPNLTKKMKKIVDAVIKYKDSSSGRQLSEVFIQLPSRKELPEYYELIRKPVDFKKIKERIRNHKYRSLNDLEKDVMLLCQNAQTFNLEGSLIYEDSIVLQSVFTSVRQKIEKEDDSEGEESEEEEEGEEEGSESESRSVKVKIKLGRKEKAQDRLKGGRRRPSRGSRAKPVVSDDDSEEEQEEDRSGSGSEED
- assay-text: SMARCA4 HiBiT degradation assay in HeLa cells
- Type: cell-based
- test-parameters: 18 hours
experimental-endpoint: DC50

Short answer please: DC50, SMARCA4 (Homo sapiens), entry C[C@@H]1CN(CC2CCN(c3ccc4c(c3)C(=O)N([C@H]3CCC(=O)NC3=O)C4)CC2)C[C@@H](C)N1C(=O)N1CCN2c3cc(-c4cccc(F)c4O)nnc3NC[C@]2(C(F)F)C1 [Example 67]
< 100 nM

How about C[C@@H]1CN(C[C@H]2CCN(c3ccc4c(c3)C(=O)N(C3CCC(=O)NC3=O)C4)C[C@@H]2F)C[C@H](C)N1C(=O)N1CCN2c3cc(-c4cccc(F)c4O)nnc3NC[C@H]2C1 (single isomer, unassigned) [Example 44] ?
< 100 nM

Field entry: C[C@@H]1CN(CC2CCN(c3ccc4c(c3)C(=O)N(C3CCC(=O)NC3=O)C4)CC2)C[C@H](C)N1C(=O)N1CCN2c3cc(-c4cccc(F)c4O)nnc3NC[C@]2(C(F)F)C1 (stereo partly drawn) [Example 70]
< 100 nM

Then CC1(C)CN(CC2CN(c3ccc4c(c3)C(=O)N(C3CCC(=O)NC3=O)C4)C2)CCN1C(=O)N1CCN2c3cc(-c4cc(F)cc(F)c4O)nnc3NC[C@H]2C1 (stereo partly drawn) [Example 23] ?
< 100 nM

Same question for CCC12CNc3nnc(-c4cc(F)cc(F)c4O)cc3N1CCN(C(=O)N1[C@H](C)CN(CC3CCN(c4ccc5c(c4)C(=O)N(C4CCC(=O)NC4=O)C5)CC3)C[C@@H]1C)C2 (single isomer, unassigned) [Example 87] please.
< 100 nM

Note, next up: CC1(C)CC(CN2CCN(c3ccc4c(c3)C(=O)N([C@H]3CCC(=O)NC3=O)C4)CC2)CCN1C(=O)N1CCN2c3cc(-c4cccc(F)c4O)nnc3NCC2(C)C1 (single isomer, unassigned) [Example 124]
< 100 nM

Same read-out for O=C1CCC(N2Cc3ccc(N4CCN(C[C@H]5CC[C@H](CN6CCN7c8cc(-c9cc(F)cc(F)c9O)nnc8NC[C@H]7C6)CC5)CC4)cc3C2=O)C(=O)N1 (stereo partly drawn) [Example 54] ?
< 100 nM

How about this compound: O=C1CC[C@H](N2Cc3ccc(N4CCN(C[C@H]5CC[C@H](CN6CCN7c8cc(-c9cccc(F)c9O)nnc8NC[C@H]7C6)CC5)CC4)cc3C2=O)C(=O)N1 [Example 114]
< 100 nM

Next record, please: CC1(C)CN(CC2CCN(c3ccc4c(c3)C(=O)N(C3CCC(=O)NC3=O)C4)CC2)CCN1C(=O)N1CCN2c3cc(-c4cccc(F)c4O)nnc3NCC2(C)C1 (mixture of isomers) [Example 6]
< 100 nM

Now try C[C@@H]1CN(C[C@H]2CN(c3ccc4c(c3)CN(C3CCC(=O)NC3=O)C4=O)CCO2)C[C@H](C)N1C(=O)N1CCN2c3cc(-c4cccc(F)c4O)nnc3NC[C@H]2C1 (stereo partly drawn) [Example 3] .
< 100 nM

Note, next up: O=C1CCC(N2Cc3ccc(N4CCN(C[C@H]5CC[C@H](C(=O)N6CCN7c8cc(-c9cccc(F)c9O)nnc8NC[C@H]7C6)CC5)CC4)cc3C2=O)C(=O)N1 (stereo partly drawn) [Example 104]
100 to 1000 nM

Okay, and CCC12CNc3nnc(-c4cc(F)cc(F)c4O)cc3N1CCN(C(=O)C1(F)CCN(CC3CCN(c4ccc5c(c4)C(=O)N([C@H]4CCC(=O)NC4=O)C5)CC3)CC1)C2 (single isomer, unassigned) [Example 110] ?
< 100 nM

Could you do the same for C[C@@H]1C[C@H](CN2CCN(c3ccc4c(c3)C(=O)N([C@H]3CCC(=O)NC3=O)C4)CC2)C[C@H](C)N1C(=O)N1CCN2c3cc(-c4cccc(F)c4O)nnc3NCC2(C)C1 (single isomer, unassigned) [Example 121] , please?
< 100 nM

Moving on to the next compound: CCC12CNc3nnc(-c4cccc(F)c4O)cc3N1CCN(C(=O)N1[C@@H](C)CN(CC3CCN(c4ccc5c(c4)C(=O)N(C4CCC(=O)NC4=O)C5)CC3)C[C@@H]1C)C2 (single isomer, unassigned) [Example 81]
100 to 1000 nM

Input CCC12CNc3nnc(-c4cccc(F)c4O)cc3N1CCN(C(=O)N1CCN(CC3CCN(c4ccc5c(c4)C(=O)N(C4CCC(=O)NC4=O)C5)CC3)CC1(C)C)C2 (single isomer, unassigned) [Example 79]
> 1000 nM

And what about the compound C[C@@H]1CN(CC2CCN(c3ccc4c(c3)C(=O)N(C3CCC(=O)NC3=O)C4)CC2)C[C@H](C)N1C(=O)N1CCN2c3cc(-c4cccc(F)c4O)nnc3NCC2(C)C1 (single isomer, unassigned) [Example 12] ?
< 100 nM

Now consider C[C@@H]1CN(CC2CCN(c3ccc4c(c3)C(=O)N(C3CCC(=O)NC3=O)C4)CC2)C[C@@H](C)N1C(=O)N1CCN2c3cc(-c4cccc(Cl)c4O)nnc3NCC2(C)C1 (single isomer, unassigned) [Example 14] and answer again.
< 100 nM

Now try C[C@@H]1CN(CC2CCN(c3ccc4c(c3)C(=O)N([C@H]3CCC(=O)NC3=O)C4)CC2)C[C@H](C)N1C(=O)N1CCN2c3cc(-c4cccc(F)c4O)nnc3NCC2(C(F)(F)F)C1 (single isomer, unassigned) [Example 95] .
< 100 nM
